The origin of these recorded values is PubChem BioAssay AID1159580.

Experiment: chemical genetic growth profiling, strain panel (AID 1159580);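 further: tested at 20 µM; growth read once vehicle control cultures reached saturation at 30 °C; 1 = growth at the plate median or of vehicle wells; lower values mean less growth of the strain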
Details: S. cerevisiae deletion strains, growth OD, locus YLR320W, strain mms22, active compounds read low
Hit rate of the full screen: of about 5,500 compounds, about 2,000 (36%) were called active. Another 18% or so got no clear call; they are omitted. This is one part of the list.
MEASUREMENT TYPE: normalized growth
// no unit, no text: just the number

Please review the following examples before continuing.
| MOLECULE | MEASUREMENT TYPE | OBSERVED RESULT |
| --- | --- | --- |
| O=C(O)c1ccccc1OP(=O)(O)O | normalized growth | 1.02 |
| CNC1(C)C2CCC(C2)C1(C)C (stereo not given) | normalized growth | 0.982 |

For the molecule `COc1ccc2cc1Oc1ccc(cc1)C[C@H]1c3cc(c(OC)cc3CCN1C)Oc1c(OC)c(OC)cc3c1[C@H](C2)N(C)CC3` , what normalized growth is on record?
0.987

`OCc1ccccc1O[C@@H]1O[C@H](CO)[C@@H](O)[C@H](O)[C@H]1O` ?
0.999

`NC(N)=NOCC[C@H](N)C(=O)O` ?
1.02

`COc1c(O)cc2oc3cc(O)c(CC=C(C)C)c(O)c3c(=O)c2c1CC=C(C)C` ?
0.843

`CC(C)=CCc1c(O)cc2oc(C)cc(=O)c2c1O` ?
0.961

`COc1ccc2cc1Oc1ccc(cc1)C[C@H]1c3c(cc4c(c3Oc3cc5c(cc3OC)CCN(C)[C@@H]5C2)OCO4)CCN1C` ?
0.922

`COc1ccc(C[C@H]2NC[C@H](O)[C@H]2OC(C)=O)cc1` ?
0.957

CC(=O)O[C@@](C)(CCC=C(C)C)C1CC=C(C)CC1 (stereo not given in full) ?
0.975

###

Assay: chemical genetic growth profiling, strain panel (AID 1159580);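 further: tested at 20 µM; growth read once vehicle control cultures reached saturation at 30 °C; 1 = growth at the plate median or of vehicle wells; lower values mean less growth of the strain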
Details: S. cerevisiae deletion strains, growth OD, locus YLR357W, strain rsc2
Hit rate of the full screen: of about 5,500 compounds, about 2,000 (36%) were called active. Roughly 18% stayed inconclusive and do not appear here. Rule as the data show it: active = normalized growth mostly below about 0.91 (no sharp cut-off); inconclusive = no clear call, values can overlap the other calls; inactive = mostly above about 0.92. The list shows a part of the results.
Write down the outcome that applies. Available outcomes: yes (1) = active, no (0) = inactive

| COMPOUND | QUALITATIVE LABEL |
| --- | --- |
| COc1cccc([C@]2(O)CCCC[C@H]2CN(C)C)c1 | no (0) |
| NCC1CCCCC1CC(=O)O (stereo unspecified) | no (0) |
| COc1ccc(-c2coc3c(OC)c(OC)cc(O)c3c2=O)cc1 | no (0) |
| CC(=O)O[C@]1(C(C)=O)CCC2C3C=C(C)C4=CC(=O)CCC4(C)C3CCC21C (stereo partly specified) | no (0) |
| CC(=O)O[C@]1(C(C)=O)CCC2C3C[C@H](C)C4=CC(=O)CC[C@]4(C)C3CC[C@@]21C (stereo partly specified) | no (0) |
| CC(C)CC1C(=O)N2CCC[C@H]2C2(O)O[C@](NC(=O)C3C=C4c5cccc6[nH]c(Br)c(c56)C[C@H]4N(C)C3)(C(C)C)C(=O)N12 (stereo partly specified) | no (0) |
| CC(C)N(C(=O)CCl)c1ccccc1 | yes (1) |
| NC(N)=NOCC[C@H](N)C(=O)O | no (0) |
| O=[N+]([O-])O[C@H]1CO[C@H]2[C@@H]1OC[C@H]2O[N+](=O)[O-] | no (0) |
| C[N+](C)(C)CC(=O)[O-] | no (0) |

Now, please, on to the next compound.
Which result was noted for this compound in the test: CCCCCC(=O)O[C@]1(C(C)=O)CCC2C3CCC4=CC(=O)CC[C@]4(C)C3CC[C@@]21C (stereo partly specified)
no (0)
